# System: ABC-1
# Method notes: relative viability (nuclei count vs DMSO), 5 days (fraction); higher = more cells survive
# Condition summary: first compound 0.1265 µM
Listed here are molecules together with their documented relative viability.

Molecule	relative viability
COc1cc(N2CCC(C(N)=O)CC2)ccc1Nc1nc(N)c(Cl)c(Nc2ccccc2S(=O)(=O)C(C)C)n1 [HG-5-88-01] + C[C@]1(O)C[C@@H](c2nc(-c3ccc4ccc(-c5ccccc5)nc4c3)c3c(N)nccn32)C1 [Linsitinib] (partner 1 µM)	0.894
Clc1ccc(Nc2nnc(Cc3ccncc3)c3ccccc23)cc1 [Vatalanib] + N=C(N)NC(=N)NCCc1ccccc1 [Phenformin] (partner 250 µM)	0.242
C[C@@H]1CN(CC(=O)Nc2ccc3c(c2)Cc2cccc(-c4cc(=O)cc(N5CCOCC5)o4)c2S3)C[C@H](C)O1 + CS(=O)(=O)CCNCc1ccc(-c2ccc3ncnc(Nc4ccc(OCc5cccc(F)c5)c(Cl)c4)c3c2)o1 [Lapatinib] (partner 2 µM)	1.06
C[C@@H]1CN(CC(=O)Nc2ccc3c(c2)Cc2cccc(-c4cc(=O)cc(N5CCOCC5)o4)c2S3)C[C@H](C)O1 + C[C@@H](Oc1cc(-c2cnn(C3CCNCC3)c2)cnc1N)c1c(Cl)ccc(F)c1Cl [Crizotinib] (partner 1 µM)	1.17
